test: Kinetic solubility in water and bio-relevant media (SGF, FaSSIF, FeSSIF) at 37° C.; format: physicochemical; details: SGF, 37° C., 1 hr; residual solids by XRPD
Structures can show the parent of a compound that is named as a salt.
endpoint name: FC: Form change

> print(dat)
                                   compound  obs.value
1  N#Cc1ccc(COc2cccc(C3CCN(Cc4nc5ccc(C(=O)O)cc5n4Cc4cncs4)CC3)n2)c(F)c1 [Potassium salt Type A]        Yes
2  N#Cc1ccc(COc2cccc(C3CCN(Cc4nc5ccc(C(=O)O)cc5n4Cc4cncs4)CC3)n2)c(F)c1 [Tris salt Type C]         No
3  N#Cc1ccc(COc2cccc(C3CCN(Cc4nc5ccc(C(=O)O)cc5n4Cc4cncs4)CC3)n2)c(F)c1 [Freeform Type C]         No
4  N#Cc1ccc(COc2cccc(C3CCN(Cc4nc5ccc(C(=O)O)cc5n4Cc4cncs4)CC3)n2)c(F)c1 [Fumarate Type A]         No

Let us examine a further case.
Q) Which FC: Form change is reported for this compound? N#Cc1ccc(COc2cccc(C3CCN(Cc4nc5ccc(C(=O)O)cc5n4Cc4cncs4)CC3)n2)c(F)c1 [Meglumine salt Type A]
A) Yes

###

assay: Kinetic solubility in water and bio-relevant media (SGF, FaSSIF, FeSSIF) at 37° C.; type: physicochemical; details: FeSSIF, 37° C., 2 hrs; residual solids by XRPD
Where a name gives a salt, the structure may show the parent alone.
endpoint name: FC: Form change

As a guide, the following entries are already answered.
> print(dat)
                                   compound  obs.value
1  N#Cc1ccc(COc2cccc(C3CCN(Cc4nc5ccc(C(=O)O)cc5n4Cc4cncs4)CC3)n2)c(F)c1 [Potassium salt Type A]         No
2  N#Cc1ccc(COc2cccc(C3CCN(Cc4nc5ccc(C(=O)O)cc5n4Cc4cncs4)CC3)n2)c(F)c1 [Meglumine salt Type A]        Yes
3  N#Cc1ccc(COc2cccc(C3CCN(Cc4nc5ccc(C(=O)O)cc5n4Cc4cncs4)CC3)n2)c(F)c1 [Freeform Type C]         No
4  N#Cc1ccc(COc2cccc(C3CCN(Cc4nc5ccc(C(=O)O)cc5n4Cc4cncs4)CC3)n2)c(F)c1 [Tris salt Type C]         No

Let us examine a further case.
Q) Which FC: Form change is reported for this compound? N#Cc1ccc(COc2cccc(C3CCN(Cc4nc5ccc(C(=O)O)cc5n4Cc4cncs4)CC3)n2)c(F)c1 [Fumarate Type A]
A) No

###

assay: Solid state stability at 25° C./60% RH and 40° C./75% RH for 1 week; assay type: physicochemical; conditions: 40° C./75% RH, 1 week
Structures can show the parent of a compound that is named as a salt.
endpoint name: HPLC peak Area, RRT 1.12 (%)
Answers are plain numbers, in %.

> print(dat)
                                   compound  obs.value
1  N#Cc1ccc(COc2cccc(C3CCN(Cc4nc5ccc(C(=O)O)cc5n4Cc4cncs4)CC3)n2)c(F)c1 [Fumarate Type A]       0.05

Dear colleague, could you send me HPLC peak Area, RRT 1.12 for each of the items below? Thanks.
1. N#Cc1ccc(COc2cccc(C3CCN(Cc4nc5ccc(C(=O)O)cc5n4Cc4cncs4)CC3)n2)c(F)c1 [Potassium salt Type A]
2. N#Cc1ccc(COc2cccc(C3CCN(Cc4nc5ccc(C(=O)O)cc5n4Cc4cncs4)CC3)n2)c(F)c1 [Tris salt Type C]

A)
1: 0.06; 2: 0.05
